Each record here notes measured Neutralization IC50 (RSV subtype A).
- tgt: RSV fusion glycoprotein (RSV F) on RSV-A2 virus (respiratory syncytial virus, UniProt P03420 26-574)
- method-description: cell-based or functional assay

Examples with their reported Neutralization IC50 (RSV subtype A) follow.
| binder | endpoint-label | reported-measurement |
| --- | --- | --- |
| ADI-41357 (antibody, V domains shown) VH: EVQLVESGGGLVQPGGSLRLSCAASGFTFSTYGMNWVRQAPGKGLEWVSYIGGSGRIIYYADSVKGRFTISRDNAKNSLYLQMNSLRAEDTAVYYCARDQHIVLVTGSTPDYWGQGTLVTVSS VL: EIVLTQSPSSLSASVGDRVTITCRASHAISNYLAWFQQKPGKAPKSLIYAASTLQSGVPSKFSGSGSGTDFTLTISSLQPEDFATYYCQQYSSYPLTFGGGTKVEIK | Neutralization IC50 (RSV subtype A) | > 25 µg/mL |
| ADI-41443 (antibody, V domains shown, IgG1; also called Ab 727) VH: EVQLVESGGGVVQPGKSLRLSCAASGFTFSSYAMHWVRQAPGKGLEWVSVIWYEDSDKYYGDSVKGRFTISRDNSKNTLYLQMNSLRAEDTAVYYCARKSGGFGGLDYWGQGTLVTVSS VL: DIVMTQSPLSLPVTPGEPASISCKSSQSLLTANGYNYLDWYVQKPGQSPHVLISLGSNRASGVPDRFSGSGSGTDFTLKISRVEAEDVGVYYCMQAIETPITFGQGTRLEIK | Neutralization IC50 (RSV subtype A) | > 25 µg/mL |

Exam item: Which Neutralization IC50 (RSV subtype A) is listed for ADI-41423 (antibody, V domains shown) VH: QVQLVESGGGLVKPGGSLRLSCAASGFTFSSYSMNWVRQAPGKGLEWVSSISSSSSYIYYADSVKGRFTISRDNAKNSLYLQMNSLRAEDTAVYYCARDPSSSWNRNDYWGQGTLVTVSS VL: QSVLIQPASVSGSPGQSITISCTGTSSDVGGYNYVSWYQQHPGKAPKLMIYDVSNRPSGVSNRFSGSKSGNTASLTISGLQAEDEADYYCSSYTSSSTLVVFGGGTKVTVL ?
Marked response: > 25 µg/mL

Exam item: Which Neutralization IC50 (RSV subtype A) is listed for ADI-41375 (antibody, V domains shown, IgG1) VH: QVQLVQSGGGVVQPGRSLRLSCATSGFTFSDYAIHWVRQAPGKGLEWVAVISYDGSHKYYGDSVKGRFTISRDNSKNTLYLQMNSLRPEDTAVYYCARSRSGSYYSSAIDNWGQGTLVTVSS VL: DIQMTQSPSSLSASVGDRVTIACRASQGISSALAWYRQRPGKAPELLIYDASTLESGVPSRFSGYGAGTDFTLTISSLQPEDFATYYCQQFNSYPSITFGQGTKVEIK ?
Marked response: > 25 µg/mL

Exam item: Which Neutralization IC50 (RSV subtype A) is listed for ADI-41454 (antibody, V domains shown, IgG1; also called Ab 738) VH: QVQLVQSGAEVKKPGASVKVSCKASGYTFTHFGISWVRQAPGQGLEWMGWISIYNGNTNYAQKIQGRATMTTDASTSTAYMELRSLTSDDTAVYYCAREPPSTTAAATSDYWGQGTLVTVSS VL: DIVMTQSPLSLPVTLGQPASISCRSSQSLVYIEGNTYLSWFQQRPGQSPRRLIYKVSNRDSGVPDRFSGSGSGTDFTLKISRVEAEDVGLYYCMQGTHWPRTFGQGTKLEIK ?
Marked response: 0.88 µg/mL
